Sourced from patent US20170334899A1

Test system: HeLa
testProtocol: Proliferation assay (crystal violet), HeLa
Assay type: cell-based
assayConditions: Homo sapiens, HeLa, 96 h, HeLa cells; 4 days incubation; crystal violet staining; read-out: IC50 inhibition of proliferation, HeLa
pIC50: −log10 of the molar value.
Threshold rule: pIC50 greater than or equal to 6 is Satisfied; below that, Not satisfied.

- molecule: "Cc1nsc(Nc2cc(C#N)ccn2)c1C(=O)Nc1ccc(OC2CCCN(C(=O)OC(C)(C)C)C2)nc1 (stereo not drawn)"
  labelValue: "Not satisfied"
- molecule: "CC(=O)N1CCC(Oc2ccc(NC(=O)c3c(C)nsc3Nc3cnc(C(F)(F)F)cn3)cn2)CC1"
  labelValue: "Not satisfied"
- molecule: "Cc1nsc(Nc2cc(C#N)ccn2)c1C(=O)Nc1cccc(NC(=O)C(C)(C)C)c1"
  labelValue: "Not satisfied"
- molecule: "Cc1nsc(Nc2cnc3ccccc3n2)c1C(=O)Nc1ccc(Oc2cccnc2)nc1"
  labelValue: "Not satisfied"
- molecule: "Cc1nsc(Nc2cc(C#N)ccn2)c1C(=O)Nc1ccc(OC2CCN(CC(F)F)CC2)nc1"
  labelValue: "Not satisfied"
- molecule: "Cc1nsc(Nc2cnc3ccccc3n2)c1C(=O)Nc1cccc(-c2nnc(C(C)(C)C)o2)c1"
  labelValue: "Not satisfied"
- molecule: "Cc1nsc(Nc2cnc(C(F)(F)F)cn2)c1C(=O)Nc1ccc(OCC2CCN(CC(F)F)CC2(F)F)nc1 (stereo not drawn)"
  labelValue: "Satisfied"
- molecule: "Cc1nsc(Nc2cnc(C(F)(F)F)cn2)c1C(=O)Nc1ccc(OC2CCN(CC(F)(F)F)C2)nc1 (stereo not drawn)"
  labelValue: "Satisfied"
- molecule: "Cc1nsc(Nc2cc(C#N)ccn2)c1C(=O)Nc1ccc(OCCCN)nc1"
  labelValue: "Not satisfied"
- molecule: "Cc1nsc(Nc2cnc(C(F)(F)F)cn2)c1C(=O)Nc1ccc(F)c(OCC2CCN(CCF)C2)c1 (stereo not drawn)"
  labelValue: "Satisfied"
- molecule: "Cc1nsc(Nc2cnc(C(F)(F)F)cn2)c1C(=O)Nc1ccc(O[C@@H]2CCN(CC(F)F)C[C@@H]2F)nc1"
  labelValue: "Satisfied"
- molecule: "CC(=O)Nc1ccccc1NC(=O)c1cccc(NC(=O)c2c(C)nsc2Nc2cnc3ccccc3n2)c1"
  labelValue: "Not satisfied"
- molecule: "Cc1nsc(Nc2cnc(C(F)(F)F)cn2)c1C(=O)Nc1ccc(F)c(C(N)=O)c1"
  labelValue: "Not satisfied"
- molecule: "Cc1nsc(Nc2cnc(C(F)(F)F)cn2)c1C(=O)Nc1ccc(N(C)C)c(OCCCN(C)CC(F)(F)F)c1"
  labelValue: "Satisfied"
- molecule: "Cc1nsc(Nc2cnc(C(F)(F)F)cn2)c1C(=O)Nc1ccc(OCC2CCCN(CC(F)(F)F)C2)nc1 (stereo not drawn)"
  labelValue: "Satisfied"
- molecule: "Cc1nsc(Nc2cnc(C(F)(F)F)cn2)c1C(=O)Nc1ccc(F)c(OCC2CCCN(CC(F)(F)F)C2)c1 (stereo not drawn)"
  labelValue: "Satisfied"
- molecule: "Cc1nsc(Nc2ccc(C#N)cn2)c1C(=O)Nc1ccc(OC2CCN(CCF)CC2)nc1"
  labelValue: "Not satisfied"
- molecule: "Cc1nsc(Nc2cnc(C(F)(F)F)cn2)c1C(=O)Nc1ccc(F)c(OCCCNCC(F)(F)F)c1"
  labelValue: "Satisfied"
- molecule: "CNS(=O)(=O)c1ccc(NC(=O)c2c(C)nsc2Nc2cc(C#N)ccn2)cc1"
  labelValue: "Not satisfied"
- molecule: "Cc1nsc(Nc2cnc(C(F)(F)F)cn2)c1C(=O)Nc1ccc(OCCN(C)CC(F)(F)F)nc1"
  labelValue: "Satisfied"
- molecule: "Cc1nsc(Nc2cnc3ccccc3n2)c1C(=O)Nc1cccc(C(=O)Nc2ccc3c(c2)OCO3)c1"
  labelValue: "Not satisfied"
- molecule: "Cc1nsc(Nc2cncc(C(F)(F)F)n2)c1C(=O)Nc1ccc(C(=O)NC2CCN(CC(F)F)CC2)cc1"
  labelValue: "Not satisfied"
- molecule: "Cc1nsc(Nc2cnc(C(F)(F)F)cn2)c1C(=O)Nc1ccc(F)c(OC2CCN(CC(F)F)C2)c1 (stereo not drawn)"
  labelValue: "Satisfied"
- molecule: "Cc1nsc(Nc2cncc(C(F)(F)F)n2)c1C(=O)Nc1ccc(OCCNC(=O)OC(C)(C)C)c(F)c1"
  labelValue: "Satisfied"
- molecule: "Cc1nsc(Nc2cnc(C(F)(F)F)cn2)c1C(=O)Nc1ccc(O[C@H]2CCN(CCC(F)(F)F)C[C@H]2F)nc1"
  labelValue: "Satisfied"
- molecule: "Cc1nsc(Nc2cnc(C(F)(F)F)cn2)c1C(=O)Nc1ccc(OC2CCN(CC(F)(F)F)CC2)nc1"
  labelValue: "Satisfied"
- molecule: "Cc1nsc(Nc2cnc3ccccc3n2)c1C(=O)Nc1cccc(C(=O)O)c1"
  labelValue: "Not satisfied"
